# TARGET OR SYSTEM: T1, human OPGbp [143-317] (human, UniProt O14788 143-317)
# T1 construct: also called OPGL
# T1 sequence (looked up): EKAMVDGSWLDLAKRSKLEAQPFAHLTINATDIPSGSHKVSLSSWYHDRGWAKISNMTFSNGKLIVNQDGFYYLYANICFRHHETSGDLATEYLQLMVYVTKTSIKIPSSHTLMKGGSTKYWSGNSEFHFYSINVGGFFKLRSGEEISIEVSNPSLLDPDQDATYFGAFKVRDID
# PROTOCOL: SPR (BIAcore), immobilized OPGbp [143-317]
ENDPOINT LABEL: koff (s⁻¹)
Just the number in s⁻¹, nothing appended.

Kindly note the recorded koff for “AT” antibody variant N98P (heavy chain CDR3) (antibody, name in Kabat numbering, V domains shown, not shown: human IgG1 CH1, hinge, CH2 and CH3) VH: QVQLVQSGAEVRKPGASVKVSCKASGYDFSNYAIHWVRQAPGQRLEWMGWINAGNGNTKFSQKFQGRITVTRDTAASTAYMELRSLRSEDTAVYYCARDSSPMVRGIIIAYYFDYWGQGTLVTVSS VL: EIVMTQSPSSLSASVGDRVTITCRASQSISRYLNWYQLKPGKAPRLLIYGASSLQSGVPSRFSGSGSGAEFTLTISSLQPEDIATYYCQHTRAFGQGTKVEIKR , which is 0.00171
